Below, each of the compounds is paired with its reported Lym value.
species on record: Rattus norvegicus; assay: Open TG-GATES - Regimen: Daily Repeat; assay type: toxicity, organism-based, Sprague-Dawley; parameters: regimen Daily Repeat, gender Male, age 6 weeks; details: in vivo, po, 0 mg/kg, […], tissue Blood, route gavage, dose level Control, time 28 day
Express the result in % but write the number alone.

CCOC(=O)C(C)(C)Oc1ccc(Cl)cc1 [CLOFIBRATE]; 81.4
C=C(C)[C@H]1Cc2c(ccc3c2O[C@@H]2COc4cc(OC)c(OC)cc4[C@@H]2C3=O)O1 [ROTENONE]; 72
O=C1CN(/N=C/c2ccc([N+](=O)[O-])o2)C(=O)N1 [NITROFURANTOIN]; 84
Cn1cc[nH]c1=S [METHIMAZOLE]; 82.4
O=[N+]([O-])c1ccc(O)c([N+](=O)[O-])c1 [2,4-DINITROPHENOL]; 78.4

Query string: Value lookup for Lym; key = C[C@H]1C(=O)O[C@@H]2CCN3CC=C(COC(=O)[C@](C)(O)[C@]1(C)O)[C@H]23 [MONOCROTALINE]
Result string: 82.2

Query string: Value lookup for Lym; key = OCCN1CCN(CCCN2c3ccccc3Sc3ccc(C(F)(F)F)cc32)CC1 [FLUPHENAZINE]
Result string: 84.8

Query string: Value lookup for Lym; key = Cc1cccc(C)c1OCC(C)N (centres undefined) [MEXILETINE]
Result string: 83.2

Query string: Value lookup for Lym; key = C[C@H]1O[C@H](O[C@H]2[C@H](O)[C@@H](O)[C@@H](O[C@H]3[C@H](O)[C@@H](O)C(O)O[C@@H]3CO)O[C@@H]2CO)[C@H](O)[C@@H](O)[C@@H]1N[C@H]1C=C(CO)[C@@H](O)[C@H](O)[C@H]1O (some centres undefined) [ACARBOSE]
Result string: 79.6
